Counter-ions that a name gives are not always drawn.
Recorded melting point values for a group of compounds are listed next.

For orientation, consider the following solved cases.
{"columns": ["compound", "melting point"],
 "data": [
  ["FC(F)(F)c1cccc(C2=CCN(CCc3cccc(-c4ccccn4)c3)CC2)n1 (as salt: oxalate)", "126 to 129 °C"],
  ["FC(F)(F)c1cccc(C2=CCN(CCc3cccc(-c4ccccn4)c3)CC2)c1 (as salt: oxalate)", "182 to 186 °C"],
  ["FC(F)(F)c1cccc(C2=CCN(CCc3cccc(-c4cnccn4)c3)CC2)c1 (as salt: oxalate) [12]", "205 to 207 °C"],
  ["FC(F)(F)c1cccc(C2=CCN(CCc3cccc(-c4cnccn4)c3)CC2)c1 (as salt: oxalate) [14]", "199 to 201 °C"],
  ["Clc1cccc(C2=CCN(CCc3cccc(-c4ccncc4)c3)CC2)n1 (as salt: oxalate)", "183 to 186 °C"]
]}

query: Given the compound Cc1ccc(-c2cccc(CCN3CC=C(c4cccc(C(F)(F)F)c4)CC3)c2)cn1 (as salt: oxalate) , what is its reported melting point?
result: 170 to 173 °C

query: Item under review: Fc1cccc(C2=CCN(CCc3cccc(-c4ccccn4)c3)CC2)c1 (as salt: oxalate) . Reported melting point?
result: 175 to 177 °C
